Source of measurements: patent US20260130395A1

test: Stability of cannabinoid compounds and Vitamin E components in Beverage 1 (AB White) by LCMSMS; assay type: physicochemical; settings: AB White stored at 21-25° C.; 10 days
experimentalEndpoint: Stability of Plant-Derived Cannabinoid Compounds in AB White, 21-25° C.
Give the number first and the unit second.

C=C(C)[C@@H]1CCC(C)=C[C@H]1c1c(O)cc(CCCCC)c(C(=O)O)c1O :: 1.73 µg/mL

Q. Give Stability of Plant-Derived Cannabinoid Compounds in AB White, 21-25° C. for C=C(C)[C@@H]1CCC(C)=C[C@H]1c1c(O)cc(CCC)cc1O
A. 0.147 µg/mL

Q. Give Stability of Plant-Derived Cannabinoid Compounds in AB White, 21-25° C. for CCCc1cc(O)c2c(c1)OC(C)(C)[C@@H]1CCC(C)=C[C@@H]21 [THCV, delta-9-tetrahydrocannabivarin]
A. 3.55 µg/mL

Q. Give Stability of Plant-Derived Cannabinoid Compounds in AB White, 21-25° C. for CCCCCc1cc(O)c2c(c1)OC1(C)CCC3C1C2C3(C)C (centres unmarked)
A. 0.546 µg/mL

Q. Give Stability of Plant-Derived Cannabinoid Compounds in AB White, 21-25° C. for CCCCCc1cc(O)c2c(c1)OC(C)(C)[C@@H]1CCC(C)=C[C@@H]21 [D9 THC, delta-9-tetrahydrocannabinol, reference compound]
A. 11.7 µg/mL

---

assay: Stability of cannabinoid compounds and Vitamin E components in Beverage 1 (AB White) by LCMSMS; type: physicochemical; details: AB White stored at 21-25° C.; 16 days
experimentalEndpoint: Stability of Plant-Derived Cannabinoid Compounds in AB White, 21-25° C. (µg/mL)
Kindly answer with a numeric value in µg/mL, unit omitted.

Q. Give Stability of Plant-Derived Cannabinoid Compounds in AB White, 21-25° C. for CCCc1cc(O)c2c(c1)OC(C)(C)[C@@H]1CCC(C)=C[C@@H]21 [THCV, delta-9-tetrahydrocannabivarin]
A. 3.60

Q. Give Stability of Plant-Derived Cannabinoid Compounds in AB White, 21-25° C. for CCCCCc1cc2c(c(O)c1C(=O)O)[C@@H]1C=C(C)CC[C@H]1C(C)(C)O2 [D9 THCA, delta-9-tetrahydrocannabinolic acid]
A. 0.921

Q. Give Stability of Plant-Derived Cannabinoid Compounds in AB White, 21-25° C. for CCCCCc1cc(O)c2c(c1)OC(C)(CCC=C(C)C)C=C2 (stereo not drawn)
A. 0.321

Q. Give Stability of Plant-Derived Cannabinoid Compounds in AB White, 21-25° C. for C=C(C)[C@@H]1CCC(C)=C[C@H]1c1c(O)cc(CCCCC)c(C(=O)O)c1O
A. 1.75

Q. Give Stability of Plant-Derived Cannabinoid Compounds in AB White, 21-25° C. for C=C(C)[C@@H]1CCC(C)=C[C@H]1c1c(O)cc(CCC)cc1O
A. 0.145

---

assay: Stability of cannabinoid compounds and Vitamin E components in Beverage 1 (AB White) by LCMSMS; format: physicochemical; conditions: AB White stored at 8° C.; 15 days
Each item that follows carries a reported Stability of Plant-Derived Cannabinoid Compounds in AB White, 8° C..
Give the number first and the unit second.

Observe how each entry below is paired with its result.
CCCCCc1cc(O)c2c(c1)OC1(C)CCC3C1C2C3(C)C (stereo not shown) [CBL, cannabicyclol] :: 0.534 µg/mL
CCCCCc1cc(O)c2c(c1)OC(C)(C)c1ccc(C)cc1-2 [CBN, cannabinol] :: 2.79 µg/mL

Q. Give Stability of Plant-Derived Cannabinoid Compounds in AB White, 8° C. for CCCc1cc(O)c2c(c1)OC(C)(C)[C@@H]1CCC(C)=C[C@@H]21 [THCV, delta-9-tetrahydrocannabivarin]
A. 3.56 µg/mL

Q. Give Stability of Plant-Derived Cannabinoid Compounds in AB White, 8° C. for CCCCCc1cc(O)c2c(c1)OC(C)(CCC=C(C)C)C=C2 (stereo not shown) [CBC, cannabichromene]
A. 0.317 µg/mL
